Biological target: JAK1 (Homo sapiens (Human))
Sequence (P23458 875-1153): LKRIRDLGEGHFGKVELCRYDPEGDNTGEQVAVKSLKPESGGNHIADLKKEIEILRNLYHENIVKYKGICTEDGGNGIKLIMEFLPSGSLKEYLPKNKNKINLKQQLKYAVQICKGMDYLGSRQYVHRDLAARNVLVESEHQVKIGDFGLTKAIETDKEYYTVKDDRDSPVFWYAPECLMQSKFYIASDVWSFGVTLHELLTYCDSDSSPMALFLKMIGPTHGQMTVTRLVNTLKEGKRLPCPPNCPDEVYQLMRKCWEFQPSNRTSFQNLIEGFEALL
Experiment: Jak Biochemical HTRF Assay, JAK1
Conditions: HTRF biochemical assay, GST-tagged catalytic domain; top concentration tested […]; read-out: JAK1 IC50
Entries and their measured IC50 follow.
Hey, just the number and the unit after it is fine.

Worked set:
N#CCC1(n2cc(C(N)=O)c(Nc3ccc(F)cc3)n2)CCN(c2cncc(C#N)c2)CC1 = 0.6 nM
CC(C)c1ccc(NC(=O)N2CC(CC#N)(n3cc(C(N)=O)c(Nc4ccccc4)n3)C2)cc1 = 5 nM
Cc1cccc(Cl)c1NC(=O)N1CC(CC#N)(n2cc(C(N)=O)c(Nc3ccccc3)n2)C1 = 5 nM

Turning to the following compound.
Reported IC50 of Cc1ncc(CN2CCC(CC#N)(n3cc(C(N)=O)c(Nc4ccnc(F)c4)n3)CC2)s1 : 1 nM

###

Molecular target: JAK2 (Homo sapiens (Human))
Sequence (O60674 849-1124): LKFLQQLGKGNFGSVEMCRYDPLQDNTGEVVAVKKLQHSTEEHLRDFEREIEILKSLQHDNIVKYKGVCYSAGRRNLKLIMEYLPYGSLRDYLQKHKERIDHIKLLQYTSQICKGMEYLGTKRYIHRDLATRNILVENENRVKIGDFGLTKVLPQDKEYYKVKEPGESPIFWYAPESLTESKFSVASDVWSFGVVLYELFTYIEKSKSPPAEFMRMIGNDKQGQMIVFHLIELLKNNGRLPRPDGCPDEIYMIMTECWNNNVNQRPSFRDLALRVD
Test: Jak Biochemical HTRF Assay, JAK2
Settings: HTRF biochemical assay, GST-tagged catalytic domain; top concentration tested […]
pIC50: −log10 of the molar value.
Outcome label depends on pIC50 relative to 8: at/above gives T, below gives F.

Past entries and their recorded results:
N#CCC1(n2cc(C(N)=O)c(Nc3ccccc3)n2)CN(C(=O)OCCc2ccccn2)C1 [Example 30-67] = F
N#CCC1(n2cc(C(N)=O)c(Nc3cncc(F)c3)n2)CCN(C(=O)CC(F)(F)F)CC1 [Example 35-3] = F
CC(CF)(CF)C(=O)N1CCC(CC#N)(n2cc(C(N)=O)c(Nc3ccnc(F)c3)n2)CC1 [Example 34-41] = F
N#CCC1(n2cc(C(N)=O)c(Nc3ccnc(F)c3)n2)CCN(Cc2cccnc2)CC1 [Example 22-2] = T
Cc1cc(C(=O)N2CCC(CC#N)(n3cc(C(N)=O)c(Nc4ccccc4)n3)CC2)no1 [Example 34-12] = F
N#CCC1(n2cc(C(N)=O)c(Nc3ccc(F)cc3)n2)CCN(Cc2cccc3[nH]ccc23)CC1 [Example 22-57] = F
N#CCC1(n2cc(C(N)=O)c(Nc3ccc(F)cc3)n2)CCN(C(=O)OCC2CC2(F)F)CC1 (stereo not drawn) [Example 30-6] = F
N#CCC1(n2cc(C(N)=O)c(Nc3ccc(F)cc3)n2)CCN(c2ccc(C(F)(F)F)nc2)CC1 [Example 3-28] = F
N#CCC1(n2cc(C(N)=O)c(Nc3ccc(F)cc3)n2)CCN(C(=O)OCC2CCOC2)CC1 (stereo not drawn) [Example 30-22] = F
COC(=O)Cc1ccc(Nc2nn(C3(CC#N)CCN(C(=O)OC(C)(C)C)CC3)cc2C(N)=O)cc1 [Example 12-2] = T

Input line: Does the compound COC1CN(C2CCC(CC#N)(n3cc(C(N)=O)c(Nc4ccnc(F)c4)n3)CC2)C1 (stereo not drawn) [Example 40-94] have recorded pIC50 that is 8 or more?
Output line: F

Input line: API: above_or_equal(metric=pIC50, cutoff=8) for item CC(C)(C)OC(=O)N1CC[C@](CC#N)(n2cc(C(N)=O)c(Nc3ccc(F)cc3)n2)[C@@H](F)C1 (racemic) [Example 6-3]
Output line: F

###

Each entry below lists one item and its recorded log10 IC50 value.
Target: JAK1 (Homo sapiens (Human))
Experiment: Jak Biochemical HTRF Assay, JAK1
Conditions: HTRF biochemical assay, GST-tagged catalytic domain; top concentration tested […]; read-out: JAK1 IC50
Annotation: log10 of IC50, nM basis.

Solved entries (count: 5):
N#CCC1(n2cc(C(N)=O)c(Nc3ccc(F)cc3)n2)CCC2(CC1)OCCO2 [Example 6-6] = 0.85
CCc1ccccc1NC(=O)N1CC(CC#N)(n2cc(C(N)=O)c(Nc3ccccc3)n2)C1 [Example 38-39] = 1.20
N#CCC1(n2cc(C(N)=O)c(Nc3ccc(F)cc3)n2)CCC(NC2CCOCC2)CC1 (stereo not shown) [Example 40-5] = 2.65
N#CCC1(n2cc(C(N)=O)c(Nc3ccccc3)n2)CCN(C(=O)C(c2ccccc2)c2ccccc2)CC1 [Example 34-33] = 2.18
COC(=O)N1CCC(CC#N)(n2cc(C(N)=O)c(Nc3ccc(S(=O)(=O)C(F)(F)F)cc3)n2)CC1 [Example 27-1] = -0.52

Noted for N#CCC1(n2cc(C(N)=O)c(Nc3ccnc(F)c3)n2)CCN(Cc2cc3ccccn3n2)CC1 [Example 22-34] : its log10 IC50 reads 0.90

N#CCC1(n2cc(C(N)=O)c(Nc3ccccc3)n2)CCN(C(=O)c2cccc(N3CCOCC3)c2)CC1 [Example 34-28] yielded log10 IC50 of 1.96

Record summary for Cc1ccncc1N1CCC(CC#N)(n2cc(C(N)=O)c(Nc3ccc(F)cc3)n2)CC1 [Example 3-33] : reported log10 IC50 = 0.85

For N#CCC1(n2cc(C(N)=O)c(Nc3ccccc3)n2)CCN(C(=O)CN2CCCC2=O)CC1 [Example 34-15] the compound record lists log10 IC50 as 0.70

The reported log10 IC50 of the compound N#CCC1(n2cc(C(N)=O)c(Nc3ccccc3)n2)CCN(C(=O)C2CC2)CC1 [Example 34-1] was 0.00
